Cited source for all entries: PubChem BioAssay AID1376

Reported inhibition by item:
Molecular target: Bifunctional protein GlmU (Mycobacterium tuberculosis (strain ATCC 25618 / H37Rv))
Assay: inhibition of mycobacterial GlmU enzyme – biochemical, glucosamine-1-phosphate acetyltransferase (AID 1376);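 further: 0% = complete reaction with vehicle and 100% = reaction without substrate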
Conditions: M. tuberculosis GlmU acetyltransferase enzyme assay; hits give high values;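 tested at 30 µM in the primary screen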
Out of some 220,000 compounds screened, about 530 (0.24%) were called active. This excerpt belongs to a sample that is enriched for actives. Measured potencies and affinities stand elsewhere.
recorded-endpoint: inhibition (%)

compound=CCc1ccc(C(=O)CN2CCSC2=N)cc1 target_under_test="Bifunctional protein GlmU (Mycobacterium tuberculosis (strain ATCC 25618 / H37Rv))" recorded_endpoint=inhibition observed_result=-4.03
compound=Cc1ccc2c(c1)cc(CN(Cc1cccs1)C(=O)c1ccco1)c1nnnn12 target_under_test="Bifunctional protein GlmU (Mycobacterium tuberculosis (strain ATCC 25618 / H37Rv))" recorded_endpoint=inhibition observed_result=-1.3
compound=CC(=O)c1ccc(C)cc1OC(=O)c1cccc(F)c1 target_under_test="Bifunctional protein GlmU (Mycobacterium tuberculosis (strain ATCC 25618 / H37Rv))" recorded_endpoint=inhibition observed_result=3.37
compound=CC(=O)Nc1ccc(/C(C)=N/NC(=O)c2ccncc2)cc1 target_under_test="Bifunctional protein GlmU (Mycobacterium tuberculosis (strain ATCC 25618 / H37Rv))" recorded_endpoint=inhibition observed_result=1.93
compound="COc1ccccc1CNC(=O)CS(=O)Cc1nc(-c2ccccc2C)oc1C (stereo unspecified)" target_under_test="Bifunctional protein GlmU (Mycobacterium tuberculosis (strain ATCC 25618 / H37Rv))" recorded_endpoint=inhibition observed_result=-3.21
compound=O=C(CCCOc1ccc(Cl)cc1Cl)NCc1ccncc1 target_under_test="Bifunctional protein GlmU (Mycobacterium tuberculosis (strain ATCC 25618 / H37Rv))" recorded_endpoint=inhibition observed_result=2.06

====

Target: Bifunctional protein GlmU (Mycobacterium tuberculosis (strain ATCC 25618 / H37Rv))
Assay: inhibition of mycobacterial GlmU enzyme – biochemical, glucosamine-1-phosphate acetyltransferase (AID 1376);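 further: 0% = complete reaction with vehicle and 100% = reaction without substrate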
Conditions: M. tuberculosis GlmU acetyltransferase enzyme assay; hits give high values;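 tested at 30 µM in the primary screen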
The campaign covered roughly 220,000 compounds. About 530 (0.24%) were called active. For the sample, actives were picked, then their nearest neighbours and some compounds at random. Potency and affinity values are given separately.
recorded-endpoint: inhibition (%)

compound=COc1cccc(CN2CCN(S(=O)(=O)c3ccc(Br)cc3)CC2)c1 observed_result=-0.5
compound=O=C(CN1CCN(c2ccc(Cl)cc2)CC1)NCc1ccccc1 observed_result=1.83
compound=O=C1CN(c2ccc(Cl)cc2)C(=O)CN1NC(=S)Nc1ccc(Cl)cc1 observed_result=-0.02
compound=O=c1[nH]nc(SCc2nnc(-c3cccc(Cl)c3)o2)n1C1CCCCC1 observed_result=1.07
compound="CCOc1cccc(C(=O)N(Cc2ccc(F)cc2)C2CCS(=O)(=O)C2)c1 (stereo unspecified)" observed_result=3.65
compound=COc1cc(NC(=O)CCCSc2nc(-c3ccco3)cc(C(F)(F)F)n2)cc(OC)c1OC observed_result=-3.07
compound=COc1ccc(CCC(=O)Nc2cc(Cl)ccc2N2CCN(C)CC2)cc1 observed_result=-2.71
compound=Oc1cccc2cc3cccc(O)c3c(O)c12 observed_result=-0.27
compound=COc1cc2cccc(OC)c(=O)c2c(O)c1OC observed_result=-3.83
compound=N#Cc1cccc(C#N)c1N1CCC(C#N)CC1 observed_result=-4.3
compound=O=C(CCc1nc2ccccc2[nH]c1=O)OCc1ccc(S(=O)(=O)N2CCOCC2)cc1 observed_result=1.61

====

Target: Bifunctional protein GlmU (Mycobacterium tuberculosis (strain ATCC 25618 / H37Rv)) (UniProt P9WMN3)
Sequence (P9WMN3 whole entry, looked up): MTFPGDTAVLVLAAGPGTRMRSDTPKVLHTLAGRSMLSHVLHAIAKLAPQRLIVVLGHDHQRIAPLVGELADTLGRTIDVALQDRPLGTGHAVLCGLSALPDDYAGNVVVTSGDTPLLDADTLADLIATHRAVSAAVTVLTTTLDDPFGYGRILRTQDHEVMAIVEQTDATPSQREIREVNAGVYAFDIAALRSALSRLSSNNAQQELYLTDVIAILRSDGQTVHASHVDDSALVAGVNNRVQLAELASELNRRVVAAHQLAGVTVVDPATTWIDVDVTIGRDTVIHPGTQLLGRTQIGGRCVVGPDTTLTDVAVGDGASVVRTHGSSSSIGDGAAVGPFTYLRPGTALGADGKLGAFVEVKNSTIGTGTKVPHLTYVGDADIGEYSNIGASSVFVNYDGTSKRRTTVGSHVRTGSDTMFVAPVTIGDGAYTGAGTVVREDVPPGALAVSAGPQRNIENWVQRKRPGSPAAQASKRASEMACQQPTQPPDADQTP
Experiment: inhibition of mycobacterial GlmU enzyme – biochemical, glucosamine-1-phosphate acetyltransferase (AID 1376);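 further: 0% = complete reaction with vehicle and 100% = reaction without substrate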
Details: M. tuberculosis GlmU acetyltransferase enzyme assay; hits give high values;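 tested at 30 µM in the primary screen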
Screen size: about 220,000 compounds; about 530 (0.24%) were called active. The list comes from a sample in which actives are over-represented; it also holds close analogues and randomly drawn compounds. Results with a measured potency or affinity are listed apart.
recorded-endpoint: inhibition (%)

molecule=O=[N+]([O-])c1ccc(N2CCNCC2)cc1Sc1nc2ccccc2[nH]1 recorded_endpoint=inhibition measurement_unit=% observed_result=-3.78
molecule="CC(C)Oc1ccc(C2CCC(=O)NC2=O)cc1 (configuration not stated)" recorded_endpoint=inhibition measurement_unit=% observed_result=13.8
molecule="CCCOc1ccc(C2NC(=O)NC2=O)cc1 (configuration not stated)" recorded_endpoint=inhibition measurement_unit=% observed_result=1.13
molecule="Cc1ccccc1S(=O)(=O)NC1OC(=O)C(Cl)=C1Cl (configuration not stated)" recorded_endpoint=inhibition measurement_unit=% observed_result=9.45
molecule="CC(C)COc1ccc(C2NC(=O)NC2=O)cc1 (configuration not stated)" recorded_endpoint=inhibition measurement_unit=% observed_result=-0.34
molecule=COc1ccc(NC(=O)CN2C(=O)c3cccc4cccc2c34)c(OC)c1 recorded_endpoint=inhibition measurement_unit=% observed_result=0.85
molecule=O=c1cc[nH]c2c(C(F)(F)F)cccc12 recorded_endpoint=inhibition measurement_unit=% observed_result=2.39

====

Target: Bifunctional protein GlmU (Mycobacterium tuberculosis (strain ATCC 25618 / H37Rv)) (UniProt P9WMN3)
Assay: inhibition of mycobacterial GlmU enzyme – biochemical, glucosamine-1-phosphate acetyltransferase (AID 1376);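 further: 0% = complete reaction with vehicle and 100% = reaction without substrate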
Conditions: M. tuberculosis GlmU acetyltransferase enzyme assay; hits give high values;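 tested at 30 µM in the primary screen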
The campaign covered roughly 220,000 compounds. About 530 (0.24%) were called active. Many of the other results were omitted from the sample, so actives are more common in it than they were. Entries with a potency or affinity are not part of this list.
recorded-endpoint: inhibition (%)

compound=Cc1ccc(C)n1-c1sc2c(c1C(=O)O)CCCC2 recorded_endpoint=inhibition observed_result=11.2
compound=Cc1cc(NC(=O)c2cc(-c3ccc(C)s3)nc3ccccc23)no1 recorded_endpoint=inhibition observed_result=2.43
compound=CCN=C1S/C(=C\c2cc(OCC)c(O)cc2Br)C(=O)N1CC recorded_endpoint=inhibition observed_result=-1.66
compound=COc1nc(OC)nc(Oc2ccc(Cl)cc2[N+](=O)[O-])n1 recorded_endpoint=inhibition observed_result=-2.5
compound=Cc1ccc(C)n1-c1ccc(C(=O)O)cc1 recorded_endpoint=inhibition observed_result=11.1
compound=Cc1cc(C)c2nc(SCCc3ccccc3)nc(C)c2c1 recorded_endpoint=inhibition observed_result=6.08
compound=O=C(CCC(=O)c1ccc(Oc2ccccc2)cc1)Nc1cccc(Cl)c1 recorded_endpoint=inhibition observed_result=3.77
compound="COc1ccc(CN(CC2CCC(C(=O)O)CC2)C(=S)Nc2ccc(C)c(Cl)c2)cc1 (stereo unspecified)" recorded_endpoint=inhibition observed_result=5.02
compound="CC(C)CNC(CC(=O)Nc1cccc([N+](=O)[O-])c1)C(=O)O (stereo unspecified)" recorded_endpoint=inhibition observed_result=0.89
compound=COc1cccc(C(=O)O/N=C(\N)c2ccc([N+](=O)[O-])cc2)c1 recorded_endpoint=inhibition observed_result=-5.75
compound=COc1ccc([N+](=O)[O-])c(S(=O)(=O)c2ccccc2)n1 recorded_endpoint=inhibition observed_result=11.9

====

Biological target: Bifunctional protein GlmU (Mycobacterium tuberculosis (strain ATCC 25618 / H37Rv)) (UniProt P9WMN3)
Test: inhibition of mycobacterial GlmU enzyme – biochemical, glucosamine-1-phosphate acetyltransferase (AID 1376);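 further: 0% = complete reaction with vehicle and 100% = reaction without substrate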
Details: M. tuberculosis GlmU acetyltransferase enzyme assay; hits give high values;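 tested at 30 µM in the primary screen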
Out of some 220,000 compounds screened, about 530 (0.24%) were called active. The entries come from a sample that favours actives as a whole. Results with a measured potency or affinity are listed apart.
Reported inhibition by item:
recorded-endpoint: inhibition (%)

molecule="CC(C)(C)NCC(O)COc1ccc(Br)cc1 (configuration not stated)" observed_result=-5.25
molecule=O=C(Nc1nnc(-c2ccccc2)o1)NC1CCCCC1 observed_result=0.77
molecule=CC(=O)N1CCC(=NNC(=O)CSc2cc(C)c(Br)cc2C)CC1 observed_result=-1.13
molecule=CC(=O)c1ccc(NC(=O)c2ccc3nc(-c4ccco4)c(-c4ccco4)nc3c2)cc1 observed_result=14.4
molecule=O=C(CSc1nnc(-c2ccncc2)n1Cc1ccco1)Nc1nc(-c2ccccc2)cs1 observed_result=-0.09
molecule="Cc1ccc(C(=O)C(OC(=O)CCC(=O)Nc2cccc(C)c2)c2ccccc2)cc1 (configuration not stated)" observed_result=14.9
molecule=Cn1nccc1NC(=O)c1nccnc1C(=O)O observed_result=-4.84
molecule=O=C(Nc1ccc2nc(-c3ccco3)c(-c3ccco3)nc2c1)N1CCCCCC1 observed_result=14.8
molecule=O=C(Nc1ccc2nc(-c3ccco3)c(-c3ccco3)nc2c1)N1CCN(c2ccccn2)CC1 observed_result=12.6
molecule=Cc1cc(N2CCN(C(=O)c3ccco3)CC2)n2nc(C)c(-c3ccccc3)c2n1 observed_result=3.95
molecule=Cc1nonc1C(=O)N/N=C/c1cccc(O)c1 observed_result=-5.8
molecule="CCOc1ccc(NC(=O)C2=C(C)C(=O)OC23CCC(C)CC3)cc1 (configuration not stated)" observed_result=3.82
molecule="Cc1ccc(NC(=O)CCC(=O)OC(C(=O)c2ccc(C)c(C)c2)c2ccccc2)c(C)c1 (configuration not stated)" observed_result=1.52
molecule=Cc1coc(NC(=O)CSc2nc(-c3ccc(Cl)cc3)cc(C(F)(F)F)c2C#N)n1 observed_result=3.77
molecule=S=c1[nH]nc(COc2ccc(Cl)cc2)o1 observed_result=13.3
molecule=Cc1c(F)cccc1NS(=O)(=O)c1ccc2c(c1)NC(=O)CO2 observed_result=-2.89
molecule=O=C(NCCO)Nc1ccc2nc(-c3ccco3)c(-c3ccco3)nc2c1 observed_result=19.4
molecule="O=C(CCC(=O)OC(C(=O)c1ccccc1)c1ccccc1)Nc1ccccc1 (configuration not stated)" observed_result=-0.93
molecule=CCOC(=O)C1CCN(C(=O)Nc2ccc3nc(-c4ccco4)c(-c4ccco4)nc3c2)CC1 observed_result=11.1
molecule=O=C(Nc1ccccc1)c1ccc2nc(-c3ccco3)c(-c3ccco3)nc2c1 observed_result=2.41
molecule=COc1ccc(OCc2n[nH]c(=S)o2)cc1 observed_result=2.56
molecule=Cc1ccccc1NS(=O)(=O)c1ccc2c(c1)NC(=O)CO2 observed_result=13.3
